Test system: AS120
Assay: qHTS profiling for inhibitors of Plasmodium falciparum proliferation (AID 504749); also: nearly all actives have a fitted effect of over 60% in size
Conditions: P. falciparum in erythrocytes, SYBR Green DNA, 72 h; series mostly up to 28.7 µM
Method: NIH National Institute of Allergy and Infectious Diseases [NIAID] NIH Chemical Genomics Center [NCGC] […] Because mature erythrocytes lack DNA, only Plasmodium-derived DNA is detected. NCGC Assay Protocol Summary: The SYBR Green viability assay was adapted from a method described previously (Plouffe et al., 2008). […] The following morning, fluorescence intensity at 485(14) nm excitation and 535(25) nm emission wavelengths was measured on an EnVision (Perkin Elmer) plate reader. […]
Records with an inconclusive call do not appear. Activity calls are given as the source filed them. Calls follow the shape of the dose curve; as a rule, active = well fitted inhibition curve with a large enough effect; inconclusive = small, poorly fitted or top-dose-only effect; inactive = flat fitted curve, though single readings scatter.
Hello, when you answer, please use one of the following outcomes: 1 (yes) = active, 0 (no) = inactive

Consider the worked cases shown below.
| compound | assigned class |
| --- | --- |
| c1cc2c(c(NC3=NCCN3)c1)CCCC2 | 0 (no) |
| C#CC(C)(O)CC (stereo not drawn) | 0 (no) |
| O=[N+]([O-])C(Br)(CO)CO | 0 (no) |
| CCC(N)Cc1c[nH]c2ccccc12 (stereo not drawn) | 0 (no) |

Please share the test call associated with OC(c1ccccc1)(c1ccccc1)C1CN2CCC1CC2 (stereo not drawn) . 0 (no)

And then `c1ccc(C2(N3CCCC3)CCCCC2)cc1` , what is it? 1 (yes)

Another compound to look at: CC(=O)OC1CN2CCC1CC2 (stereo not drawn) 0 (no)

Repeat for the following compound: O=C1CC[C@@]2(O)C3Cc4ccc(O)c5c4C2(CCN3CC2CC2)[C@H]1O5 (stereo partly drawn) 0 (no)

Check `[O]=[Cr](=[O])([OH])[O][Cr](=[O])(=[O])[OH]` too. 0 (no)

What about this compound? `O=c1[nH]cc(N(CCCl)CCCl)c(=O)[nH]1` 0 (no)

Please give the result for [N-]=[N+]=CC(=O)OCC(N)C(=O)O (stereo not drawn) too. 0 (no)

Ok, now `Oc1cc(Cl)c(Cl)cc1Cl` 0 (no)

And CCC1(c2ccccc2)C(=O)NC(=O)N(C(=O)c2ccccc2)C1=O (stereo not drawn) ? 0 (no)

---

molecular target: Flap endonuclease 1 (Homo sapiens) (UniProt P39748); assay: qHTS Validation Assay for the Inhibitors of Human Flap endonuclease 1 (FEN1) (AID 488816); settings: FEN1 nuclease activity, fluorogenic DNA substrate; series mostly up to 57.1 µM
Sequence (P39748 whole entry, looked up): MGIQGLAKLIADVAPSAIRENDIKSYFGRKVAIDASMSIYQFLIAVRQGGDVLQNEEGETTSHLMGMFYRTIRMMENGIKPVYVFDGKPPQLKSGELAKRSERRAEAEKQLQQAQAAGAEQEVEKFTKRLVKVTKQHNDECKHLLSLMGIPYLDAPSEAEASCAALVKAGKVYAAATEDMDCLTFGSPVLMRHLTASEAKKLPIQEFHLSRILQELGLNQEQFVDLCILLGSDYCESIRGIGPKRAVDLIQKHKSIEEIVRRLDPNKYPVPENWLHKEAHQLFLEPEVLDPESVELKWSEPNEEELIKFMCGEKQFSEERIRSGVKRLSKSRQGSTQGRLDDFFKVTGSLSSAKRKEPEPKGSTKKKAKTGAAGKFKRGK
Calls of active or inactive are those of the source. Calls come from the whole dose curve; as a rule, active = well fitted inhibition curve with a large enough effect; inconclusive = small, poorly fitted or top-dose-only effect; inactive = flat fitted curve, though single readings scatter.
Select the correct class. Options are 1.0 for active, 0.0 for inactive and nothing else.

Example entries and their recorded answers appear below.
| compound | assigned class |
| --- | --- |
| CCS(=O)(=O)Nc1cccc(C(=C2CCCCC2)c2cnc[nH]2)c1 | 0.0 |
| NCC(CP(=O)(O)O)c1ccc(Cl)cc1 (stereo not drawn) | 0.0 |
| Cc1c2ccncc2c(C)c2c1[nH]c1ccccc12 | 1.0 |
| COc1ccc2c(c1O)-c1cccc3c1[C@@H](C2)N(C)CC3 | 0.0 |
| C=CCN(C1=NCCN1)c1c(Cl)cccc1Cl | 0.0 |

Field: next compound
Lab log entry: `NC(=O)c1cc(N2CC2)c([N+](=O)[O-])cc1[N+](=O)[O-]` — outcome as called in the assay? 0.0

Data provenance: PubChem BioAssay (NCATS)
